// reported apparent KD of K4 kissing-loop reporter per item
System: K4 kissing-loop RNA reporter
Assay Protocol: apparent KD of K4 kissing-loop reporter; higher = weaker reporter binding
Condition Details: Eterna round: R107; input ligand: FMN 200 uM
The answer is to be given in nM; state only the numeric part.

Prompt: Consider the sequence shown here: GAGGUACAGCUGGCCGUCGAAUUGUCCGAUACCAGACACUCUCUAGUCCCUUGGCAGCGGUGGUAAGUGAUGUUUACAGGCGCCG [theeternabot_exclusion_KL_Theo_A_3] What is its recorded apparent KD of K4 kissing-loop reporter?
Response: 152

----------
// reported apparent KD of K4 kissing-loop reporter per item
System: K4 kissing-loop RNA reporter
Assay Protocol: apparent KD of K4 kissing-loop reporter; higher = weaker reporter binding
Condition Details: Eterna round: R107; input ligand: theophylline 20 uM
The answer is to be given in nM; state only the numeric part.

Prompt: Consider the sequence shown here: GGACUCAAAUGUAGUGAUGUUACAAGCGAUACCAGUAUCUAACAUUACCCUUGGCAGCGCGCCCAGCUCAGCAAAUUAGAUAGCG [theeternabot_sameState_KL_Theo_A_43] What is its recorded apparent KD of K4 kissing-loop reporter?
Response: 268

----------
// reported apparent KD of MS2 coat protein per item
System: MS2 coat protein
Assay Protocol: apparent KD of MS2 coat protein; higher = weaker reporter binding
Condition Details: Eterna round: R107; input ligand: tryptophan 2.4 mM

Prompt: Consider the sequence shown here: UUAGAUAUGACAGAUACCAGCGUGUUGUAGAACAUGAGGAUCACCCAUGUAGUGAUCGAGCGCCCUUGGCAGCUGGUGUGUUUGG [7.S] What is its recorded apparent KD of MS2 coat protein?
Response: 319 nM

Prompt: // query: UUCAGCUAGUCGGCCGCCACUACCUGAGGAUCACCCUGGUAAUCCUAACACUGCUUCGGCAGUGGUAGGACCGGGACUAGCUGAG
Response: 225 nM

Prompt: // query: ACAUGAGGAUCACCCAUGUAUGAUGUUCCUCGAGGACCGGUACGGCCGCCACUCGAACGAGUGGCGCGCGCGCGCGCGCGCGCGC [aUa]
Response: 16.4 nM

Prompt: // query: GCUGCCAUACGAAGGAGCGCUGUUGCAAUGAGGCGAACAUGAGGAUCACCCAUGUGGCAGCAGCAGGUAGGUCGCGUAUGGCAGC [EAB #12]
Response: 44.2 nM

----------
Tested on: K4 kissing-loop RNA reporter
Assay Protocol: apparent KD of K4 kissing-loop reporter; higher = weaker reporter binding
Condition Details: Eterna round: R107; input ligand: tryptophan 2.4 mM
// reported apparent KD of K4 kissing-loop reporter per item

# Sequence, Reported Metric, Data Value
records = [
    ("GUAAGACCGGGACUCCAGUGAUGUUGGAGGCAGGAUAUCCAGUCGAGGAGAAGGGCCAGGGAUAUCGAGCUGCUCGGUUCGUAGU [Rerareatra]", "apparent KD of K4 kissing-loop reporter", "66.5 nM"),
    ("UGGACCAAGGAGUGAUGUUCCAAAUGUGAUACCAGCCACGAAAGUGGCCCUUGGCAGCACUGCCAAAGGACGAAAGUCCGGUCCU [#SwitchBubble 10 #StaticStem #K4Early]", "apparent KD of K4 kissing-loop reporter", "280 nM"),
]

Now turn to the next sequence.
Prompt: Find the measured apparent KD of K4 kissing-loop reporter: item UGUAUGUGAUUUGAUACCAGACCAGUUGGUGGUAUAUGAGUGAUGUUUAUGUUGGUUUGGGUCCCUUGGCAGCAAAUCGCAUACU [KL-SSTheoB11] , target or system K4 kissing-loop RNA reporter.
Response: 386 nM

----------
// reported apparent KD of K4 kissing-loop reporter per item
Test system: K4 kissing-loop RNA reporter;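 note: bound reporter read as fluorescence of individual clusters on recovered sequencing chips by microscopy, with normalized cluster intensities fitted with a binding model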
Assay Protocol: apparent KD of K4 kissing-loop reporter; higher = weaker reporter binding
Condition Details: Eterna round: R107; input ligand: theophylline 20 uM
The answer is to be given in µM; state only the numeric part.

Worked set:
# Sequence, apparent KD of K4 kissing-loop reporter, µM
records = [
    ("UAGUCCUAGUGAUGGUCAUCACGUGGUGGGCGAGGACCGGUACGGCCGCCACUCGACUUUGCAGUGAUGUUGCAAACCGGACAAU [Exclusion - Tryptophan A (Freestyle 19)]", 0.354),
    ("AAGCAGUCACUCGAAGCCAUCGAAGAUGGACGAGGACCGGUACGGCCGCCACUCGGAGUGAUGUUCCGAAGACUGCAAAAUAAAA", 0.33),
]

Prompt: Consider the sequence shown here: AAACGUUGGUCGGAUACCAGCUUGAUCGGAAAACGAUCUGCUGGAGUGAUGUUCCAAUAAAGCCCUUGGCAGCCGACCGACGAAA [MAT - Same State Theophlline B - Mod of Eli - D15] What is its recorded apparent KD of K4 kissing-loop reporter?
Response: 0.746

Prompt: // query: CCUUCUCUUGAUAGUGAUGUUAUCAAGGGCAAGGAUAUCAUCUUAAUGAGAAGGUGUCCUUGAUAACAUGGAGGUCUGAAACAGA [Omei KL FMN A Exc C v5]
Response: 0.321

Prompt: // query: CGGGUACGUCAAGGAUAUAGGCAUGACGUAGUGCAGUGAUGUUGCUCGAGUCUCUUCAACUGAGGACUAGAAGGUGAUCGUAACA [theeternabot_sameState_KL_FMN_B_15]
Response: 0.644

Prompt: // query: GUUGAUCAUGGAAGGAGCGCCCAUUGUCGACACGAGUGAUGUUCGUGUCGUUGAUUACGAGGGCAGGUAGGUCGCCGUGUGCUUU [Rabele]
Response: 0.116

----------
Tested on: MS2 coat protein
Assay Protocol: apparent KD of MS2 coat protein; designed switch direction (-1 OFF switch, 1 ON switch): -1; higher = weaker reporter binding
Condition Details: Eterna round: R95; input ligand: microRNA oligo, concentration not stated
Classify by measured apparent KD of MS2 coat protein: yes if it is equal to or exceeds 30 nM, no if it is smaller.

# Sequence, Label Class
rows = [
    ("GUGUGCUGAGGAUAUACACAGGAAUAGAAGAUAAGAUAAUCACAUGAGGAUCACCCAUGUAGAAGGCAGAGUGU [Excluse me!! 17 - Jieux - Exclusion 2] (puzzle: Exclusion 2)", "no"),
    ("CCAGCGUAUGUGAGGAUAUGCUGGUCCUUGGAUCAGCAGAAGGCACAUGAGGAUCACCCAUGUGGAAACGUUGG [JL bmx4 3.41] (puzzle: Brourd's mod of Exclusion 4)", "no"),
]

Prompt: For this sequence, is measured apparent KD of MS2 coat protein 30 nM or higher? AGUAACCGUCACGAAAGUGAUGGUUACACAAGUGUAAUAACAUGAGGAUCACCCAUGUCCUCAUUUGCUCGUCUUAU [Sensor 3 - 36] (puzzle: Sensor v3, turn-off variant 2)
Response: yes

Prompt: // query: AUGAGGGUAAGAAGGUGAAGAUAGAGCGUACCUUAUGGAACAUGAGGAUCACCCAUGUAGCUUUUUGCUCGUCUUAU [JR_SV3TOV2_Sub032] (puzzle: Sensor v3, turn-off variant 2)
Response: yes

Prompt: // query: CCCAGGGCAGGAUAUAGAGGGUGAAACAUGAGGAUCACCCAUGUGACCUCGGAACAGCUGCUAGAAGGGCCAAAUU [Eszaraxe] (puzzle: Exclusion 5)
Response: no

Prompt: // query: UGUACGAUGCGUGCUGACAUGCGUCGUGCAGCAGGUGAUACAUGAGGAUCACCCAUGUCCUCAUUUGCUCGUCUUAU [Mat - Sensor v3 - Turn-off var 2 - D23] (puzzle: Sensor v3, turn-off variant 2)
Response: yes

Prompt: // query: GAUUAUGCGAGCUUUAGGGACAUGAGGAUCACCCAUGUUCGUCUUGUUGAUCUAGGUACACUAACAUACCUAAAUCU [JMF 16] (puzzle: Sensor v3, turn-off variant 1)
Response: no

Prompt: // query: GUGGAACAUGAGGAUCACCCAUGUGAGGAUAUGUGAGAAGGAUUUGAGAGGGAGAGGGACAGAAGGCACUAGGA [JR_Exclu1_Sub084] (puzzle: Exclusion 1)
Response: yes

Prompt: // query: GAUAGAGAGCAGGAUAUCUUGGGUAAGUAUCGUAGAGAAGGGCUCACAUGAGGAUCACCCAUGUGGUCCUAGAU [JL Dibiri mod 03] (puzzle: Exclusion 6)
Response: no

----------
Test system: MS2 coat protein
Assay Protocol: apparent KD of MS2 coat protein; designed switch direction (-1 OFF switch, 1 ON switch): -1; higher = weaker reporter binding
Condition Details: input ligand: none
Classify by measured apparent KD of MS2 coat protein: satisfied if it is equal to or exceeds 0.02 µM, not satisfied if it is smaller.

Please review the following examples before continuing.
# Sequence, Label Class
records = [
    ("UUGUUGUAUGUAGGAUAUGCAUGUUAUUAUUAUGCAGAAGGACAUGAGGAUCACCCAUGUAUAUUAUUAUUAUAUGUUAUAUAU [Title] (Eterna round: R96, puzzle: Exclusion NG 1)", "satisfied"),
    ("CAGUACUGAGGAUAUACAUGAGGAUCACCCAUGUGUACCAGCUAGGAAACUAGCAAAAGUAGAAGGCAGUACUG [828 mod 2 m10] (Eterna round: R97, puzzle: Exclusion 3)", "not satisfied"),
    ("CUUAAAAGGAAGGAUAUGCUAGACGAAAGUCUAGCAGAAGGUCCUACAUGAGGAUCACCCAUGUGUCCUAUAAG [Mat - Exclusion 6 - Eli Mod - D13] (Eterna round: R97, puzzle: Exclusion 6)", "satisfied"),
]

Prompt: For this sequence, is measured apparent KD of MS2 coat protein 0.02 µM or higher? GCACGAAGUGGAGGAUAUCUGGGCGAGGAGCGCAGAGAAGGCCACAUGAGGAUCACCCAUGUUUUCCACGGAUAGCAAACGUGC [exng1 ex2.1] (Eterna round: R96, puzzle: Exclusion NG 1)
Response: satisfied

Prompt: // query: CUCCGCCGCAGAGGAUAUGGAUGUCGGAGACAUGAGGAUCACCCAUGUAUCCUGUCGAUGAGUACCCAGAAGGUUGUCACGCAU [Eternabot solution 49] (Eterna round: R96, puzzle: Exclusion NG 2)
Response: satisfied
